TOP blocking (%) listing for selected binders.
Biological target: T1, hFc tagged human LAG3 ECD recombinant protein (human, UniProt P18627 23-450)
T1 construct: range 23-450; also called biotin labelled hFc tagged human LAG3 ECD; not shown: human IgG Fc tag
T1 sequence (looked up): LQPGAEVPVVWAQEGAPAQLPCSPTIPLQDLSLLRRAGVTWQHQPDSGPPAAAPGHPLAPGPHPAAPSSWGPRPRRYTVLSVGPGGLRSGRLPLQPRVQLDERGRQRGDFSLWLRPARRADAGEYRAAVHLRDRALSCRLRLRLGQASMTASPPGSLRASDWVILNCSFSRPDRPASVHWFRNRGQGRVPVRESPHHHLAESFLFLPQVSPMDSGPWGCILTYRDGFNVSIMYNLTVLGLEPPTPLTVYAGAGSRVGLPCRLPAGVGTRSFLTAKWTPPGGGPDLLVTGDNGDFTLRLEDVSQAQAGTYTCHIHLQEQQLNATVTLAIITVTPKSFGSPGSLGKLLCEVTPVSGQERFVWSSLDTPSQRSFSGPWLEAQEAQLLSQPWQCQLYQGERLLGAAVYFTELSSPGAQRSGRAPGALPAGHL
Test: competitive ELISA format II: biotin hFc-LAG3 ECD binding to coated His-FGL1
property_measured: TOP blocking (%)

| binder | property_measured | result_units | recorded_value |
| --- | --- | --- | --- |
| 023c (antibody, human IgG4, V domains shown, human IgG4 S228P / kappa chimeric antibody; also called chimeric antibody 023; ES005-023c; not shown: human kappa light chain constant region (pcDNA3.4-hIgGk vector)) VH: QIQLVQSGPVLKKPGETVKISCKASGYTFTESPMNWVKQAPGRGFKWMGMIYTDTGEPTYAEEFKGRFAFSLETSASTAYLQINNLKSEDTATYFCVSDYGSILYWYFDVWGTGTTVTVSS VL: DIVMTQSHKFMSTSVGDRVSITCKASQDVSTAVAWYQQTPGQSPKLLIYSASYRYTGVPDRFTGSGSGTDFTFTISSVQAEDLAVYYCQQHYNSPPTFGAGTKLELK | TOP blocking (%) | % | 82.8 |
| hu023.11 (antibody, human IgG4, V domains shown, humanized from 023c) VH: QVQLVQSGPELKKPGASVKVSCKASGYTFTESPMNWVRQAPGQGFEWMGIIYTDTGEPTYAEEFKGRFVFSLDTSVSTAYLQISSLKAEDTAVYFCVSDYGSILYWYFDVWGQGTLVTVSS VL: DIQMTQSPSSLSASVGDRVTITCKASQDVSTAVAWYQQKPGKSPKLLIYSASYRYTGVPSRFSGSGSGTDFTFTISSLQPEDFATYYCQQHYNAPPTFGQGTKLEIK | TOP blocking (%) | % | 83.9 |

Recorded values, source patent US20250313625A1.
